- target.under.test: Alpha-2C adrenergic receptor (Homo sapiens)
- protocol: compounds altering alpha2C-coupled GIRK flux – cell-based, HEK293 alpha2C/GIRK1/2, thallium flux, primary screen (AID 624);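 note: slope of fluorescence ratio to pre-addition baseline per second over 15 to 24 s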
- recorded.conditions: thallium flux BTC fluorescence, at 10 µM, actives lie on both sides
The source made the active and inactive calls.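 Rule for the calls: active = fluorescence slope after compound addition differing from the mean of all screened samples at 99.7% confidence, in either direction; inactive = the rest.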
measure.name: slope

query: Requested read-out slope, target or system Alpha-2C adrenergic receptor (Homo sapiens), entry CCOC(=O)N1CCC(N2C(=O)c3ccccc3C2Nc2ccc3c(C)cc(=O)oc3c2)CC1 (configuration not stated)
result: 0.00764 (inactive)

query: Request body: readout slope, system Alpha-2C adrenergic receptor (Homo sapiens), query CC(c1ccco1)N(Cc1ccco1)C(=O)Nc1ccccc1 (configuration not stated) . Return the value.
result: 0.00511 (inactive)

query: Item COc1cccc(NC(=O)COC(=O)c2ccco2)c1 with Alpha-2C adrenergic receptor (Homo sapiens) - slope?
result: 0.00724 (inactive)

query: Value wanted: slope (Alpha-2C adrenergic receptor (Homo sapiens)) of entry [N-]=[N+]=CC(=O)CC(c1ccccc1)N1C(=O)c2ccccc2C1=O (configuration not stated)
result: 0.00641 (inactive)

query: Give Alpha-2C adrenergic receptor (Homo sapiens) slope for CCOC(=O)N1CCC(NC(=O)C2CCN(S(=O)(=O)c3cccc4cccnc34)CC2)CC1
result: 0.00729 (inactive)

query: Give the reported slope for O=C(Nc1cnn(C23CC4CC(CC(C4)C2)C3)c1)c1cnn2c(C(F)(F)F)cc(-c3ccco3)nc12 (system: Alpha-2C adrenergic receptor (Homo sapiens)).
result: 0.00429 (inactive)

query: Hello, I am looking for reported slope with Alpha-2C adrenergic receptor (Homo sapiens) for Cc1ccc(CNC(=O)COC(=O)c2c(C)noc2C)cc1 . Could you help?
result: 0.00349 (inactive)

query: Record lookup: for Alpha-2C adrenergic receptor (Homo sapiens), what slope belongs to c1ccc(N2CCN(Cc3cn4cccnc4n3)CC2)cc1 ?
result: 0.00602 (inactive)

query: Lab note: need slope with Alpha-2C adrenergic receptor (Homo sapiens) for entry O=C(CSCc1ccccn1)Nc1ccccc1 , please look it up.
result: 0.00582 (inactive)

query: Which measured slope belongs to Cn1c(=O)[nH]c(=O)c2c1nc(NCCCn1ccnc1)n2Cc1cccc(Br)c1 , tested on Alpha-2C adrenergic receptor (Homo sapiens)?
result: 0.006 (inactive)

query: Observed slope on Alpha-2C adrenergic receptor (Homo sapiens) for COC(=O)c1ccc(CSc2nnc(-c3ccncc3)o2)o1 , please.
result: 0.00373 (inactive)

query: Field: slope (Alpha-2C adrenergic receptor (Homo sapiens)). Entry: CC1=C(C(=O)NCc2ccccc2)C(c2ccccc2OCC(N)=O)NC(=O)N1 (configuration not stated)
result: 0.00981 (inactive)

query: Checklist item: slope tested on Alpha-2C adrenergic receptor (Homo sapiens), entry Cc1cccc(-c2nnn(CC/C(N)=N/O)n2)c1 , value?
result: 0.00549 (inactive)

query: Quick check: slope on Alpha-2C adrenergic receptor (Homo sapiens), item CCn1c(C)c(CCC(=O)O)c(=O)n2nc(-c3ccccc3OC)cc12 ?
result: 0.00427 (inactive)

query: API: value(readout=slope, system=Alpha-2C adrenergic receptor (Homo sapiens)) for record COCCNC(=O)C(c1ccc(C)o1)N(Cc1ccc(F)cc1)C(=O)Cn1nnc2ccccc21 (configuration not stated)
result: 0.00726 (inactive)

query: # query: slope | item CC(=O)SCCC(=O)Nc1ccccc1 | system: Alpha-2C adrenergic receptor (Homo sapiens)
result: 0.00709 (inactive)

query: slope of COC(=O)Nc1sc2c(c1C(N)=O)CCCCCC2 on Alpha-2C adrenergic receptor (Homo sapiens)?
result: 0.00644 (inactive)

query: For Alpha-2C adrenergic receptor (Homo sapiens), provide slope of O=C(Nc1cccc(F)c1)C1C2C=CC3(CN(CCCN4CCOCC4)C(=O)C13)O2 (configuration not stated) please.
result: 0.00626 (inactive)

query: Form field: slope recorded for CCOC(=O)C1CCCN(C(=O)c2sc3nc(-c4ccccc4)cn3c2C)C1 (configuration not stated) with Alpha-2C adrenergic receptor (Homo sapiens) (enter value)
result: 0.00524 (inactive)

query: Identify the measured slope of Cc1ccc2c(c1)nnn2C1CCN(C(=O)NC23CC4CC(CC(C4)C2)C3)CC1 for Alpha-2C adrenergic receptor (Homo sapiens).
result: 0.00535 (inactive)

query: Record lookup: for Alpha-2C adrenergic receptor (Homo sapiens), what slope belongs to COC(=O)c1[nH]c2c(c1C)C(=O)CC(c1cc(OC)ccc1OC)C2 (configuration not stated) ?
result: 0.00652 (inactive)

query: slope of Cc1ccc(C(=O)N2CCCC(c3nc4c(nnn4Cc4ccccc4)c(=O)[nH]3)C2)cc1 (configuration not stated) on Alpha-2C adrenergic receptor (Homo sapiens)?
result: 0.00676 (inactive)
